Below, each entry is listed alongside its reported EC50.
- ASSAY SYSTEM: human TGR5 (Homo sapiens)
- Construct: expressed in transfected cells
- Sequence (Q8TDU6 whole entry): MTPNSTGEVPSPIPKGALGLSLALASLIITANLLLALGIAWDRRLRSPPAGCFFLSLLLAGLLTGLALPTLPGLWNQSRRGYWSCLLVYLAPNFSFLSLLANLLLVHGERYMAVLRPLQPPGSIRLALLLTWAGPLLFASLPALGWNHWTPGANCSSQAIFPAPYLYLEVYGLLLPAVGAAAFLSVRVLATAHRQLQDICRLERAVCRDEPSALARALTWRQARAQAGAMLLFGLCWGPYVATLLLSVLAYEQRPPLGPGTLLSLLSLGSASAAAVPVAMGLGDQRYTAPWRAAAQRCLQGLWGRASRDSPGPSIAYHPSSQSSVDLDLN
- ASSAY: Cell-based TGR5 assay, HEK293 cells stably expressing human TGR5, cAMP by HTRF
- CONDITIONS: HEK293 cells stably expressing human TGR5, 30 min at 37 C, 0.05 nM to 10 μM, read-out: pEC50 Human TGR5 (converted)

- RECORD SMILES: "CN1CC(OCc2cc(Cl)ccc2Cl)(C(=O)N2CCN(C3CC3)c3ccccc32)C1"
  EC50: "0.126 to 1 µM"
- RECORD SMILES: "O=C(N1CCN(C2CC2)c2ccccc21)C1(NCc2cc(Cl)c(O)cc2Cl)CC1"
  EC50: "< 0.1 µM"
- RECORD SMILES: "O=C(OC1(C(=O)N2CCN(C3CC3)c3ccccc32)CC1)c1cc(Cl)ccc1Cl"
  EC50: "< 0.1 µM"

Any idea what its EC50 is? The molecule is `O=C(CCCCc1cc(Cl)c(CNC2(C(=O)N3CCN(C4CC4)c4ccccc43)CC2)cc1Cl)NC[C@H](O)[C@@H](O)[C@H](O)[C@H](O)CO` < 0.1 µM

* * *

- Tested on: C57BL/6 male mice
- ASSAY: In vivo gallbladder measurement (weight) 8 h post dose
- CONDITIONS: 30 mg/kg, 8 h, vs. vehicle, one-way ANOVA, Dunnett's test
- Source text: Eight hours later, each mouse was heavily anesthetized with isoflurane, the peritoneal cavity was opened and the gallbladder, with its entire contents, was carefully excised and weighed. Blood was collected from the left ventricle of the heart and processed to plasma in EDTA-coated tubes containing aprotinin and DPPIV inhibitor for measurement of total GLP-1 (K150FCC; Meso Scales Discovery, Gaithersburg Md.).
OBSERVED PROPERTY: Gallbladder weight/body weight fold change over vehicle, Significance

- COMPOUND: "O=C(N1CCN(C2CC2)c2ccccc21)C1(NCc2cc(Cl)c(O)cc2Cl)CC1 [Example 165]"
  ASSAY SYSTEM: "C57BL/6 male mice"
  EXPERIMENTAL VALUE: "n.s."
- COMPOUND: "CN(C[C@H](O)[C@@H](O)[C@H](O)[C@H](O)CO)C(=O)NCCCCOc1cc(Cl)c(CN2CSC[C@H]2C(=O)N2CCN(C3CC3)c3ccccc32)cc1Cl [Example 191]"
  ASSAY SYSTEM: "C57BL/6 male mice"
  EXPERIMENTAL VALUE: "n.s."
- COMPOUND: "CN(C(=O)C1(OCc2cc(Cl)c(CCCNC(=O)NC[C@H](O)[C@@H](O)[C@H](O)[C@H](O)CO)cc2Cl)CC1)c1ccccc1OC1CC1 [Example 96]"
  ASSAY SYSTEM: "C57BL/6 male mice"
  EXPERIMENTAL VALUE: "n.s."

* * *

Below, each entry is listed alongside its reported EC50.
- ASSAY SYSTEM: human TGR5 (Homo sapiens)
- Construct: expressed in transfected cells
- ASSAY: Cell-based TGR5 assay, HEK293 cells stably expressing human TGR5, cAMP by HTRF
- CONDITIONS: pEC50 Human TGR5, HEK293 cells stably expressing human TGR5, 30 min at 37 C, 0.05 nM to 10 μM

- RECORD SMILES: "O=C(NCCCCCc1cc(Cl)c(CN2CSC[C@H]2C(=O)N2CCN(C3CC3)c3ccccc32)cc1Cl)NCP(=O)(O)O"
  EC50: "0.126 to 1 µM"
- RECORD SMILES: "O=C(O)CNC(=O)CNC(=O)CNC(=O)CCCCc1cc(Cl)c(CN2CSC[C@H]2C(=O)N2CCN(C3CC3)c3ccccc32)cc1Cl"
  EC50: "< 0.1 µM"
- RECORD SMILES: "O=C(NCCCN(CCCNC(=O)[C@H](O)[C@@H](O)[C@H](O)[C@H](O)CO)C(=O)NCCCCOc1cc(Cl)c(CN2CSC[C@H]2C(=O)N2CCN(C3CC3)c3ccccc32)cc1Cl)[C@H](O)[C@@H](O)[C@H](O)[C@H](O)CO"
  EC50: "0.126 to 1 µM"
- RECORD SMILES: "C[C@@H](NC(=O)[C@@H](C)NC(=O)[C@@H](C)NC(=O)CCCCc1cc(Cl)c(CN2CSC[C@H]2C(=O)N2CCN(C3CC3)c3ccccc32)cc1Cl)C(=O)O"
  EC50: "< 0.1 µM"
- RECORD SMILES: "O=C(O)CNC(=O)[C@H](CSSC[C@H](NC(=O)CC[C@H](NC(=O)CCCCc1cc(Cl)c(CN2CSC[C@H]2C(=O)N2CCN(C3CC3)c3ccccc32)cc1Cl)C(=O)O)C(=O)NCC(=O)O)NC(=O)CC[C@H](NC(=O)CCCCc1cc(Cl)c(CN2CSC[C@H]2C(=O)N2CCN(C3CC3)c3ccccc32)cc1Cl)C(=O)O"
  EC50: "< 0.1 µM"
- RECORD SMILES: "O=C(O)CN(C[C@H](O)[C@@H](O)[C@H](O)[C@H](O)CO)C(=O)CCCCc1cc(Cl)c(CN2CSC[C@H]2C(=O)N2CCN(C3CC3)c3ccccc32)cc1Cl"
  EC50: "0.126 to 1 µM"
- RECORD SMILES: "CN(C[C@H](O)[C@@H](O)[C@H](O)[C@H](O)CO)C(=O)CC[C@H](NC(=O)CCCCc1cc(Cl)c(CN2CSC[C@H]2C(=O)N2CCN(C3CC3)c3ccccc32)cc1Cl)C(=O)O"
  EC50: "0.126 to 1 µM"
- RECORD SMILES: "O=C(NCCCCCc1cc(Cl)c(CN2CSC[C@H]2C(=O)N2CCN(C3CC3)c3ccccc32)cc1Cl)N1CCN(CP(=O)(O)O)CC1"
  EC50: "< 0.1 µM"

Could you now consider this next compound?
Any idea what its EC50 is? The compound is `O=C(CCCCc1cc(Cl)c(CN2CSC[C@H]2C(=O)N2CCN(C3CC3)c3ccccc32)cc1Cl)N[C@@H](C(=O)O)[C@@H](O)[C@H](O)[C@H](O)CO` < 0.1 µM
